Assay: Solubility of the compound in PBS buffer at pH 7 by miniaturized shake flask equilibrium solubility assay
Each entry below lists one item and its recorded solubility thermodynamic value.

[
  {
    "ENTRY_SMILES": "C[C@@H]1Cn2ncc(-c3ccc(S(=O)(=O)N(C)C)cc3)c2CN1c1ccnc2[nH]ccc12",
    "solubility thermodynamic, µM": 188
  },
  {
    "ENTRY_SMILES": "C[C@@H]1Cn2ncc(C3CCN(S(C)(=O)=O)CC3)c2CN1c1cc(Cl)nc2[nH]ccc12",
    "solubility thermodynamic, µM": 37
  },
  {
    "ENTRY_SMILES": "CN(C)S(=O)(=O)c1ccc(-c2cnn3c2CN(c2ccnc4[nH]ccc24)CC3)cc1",
    "solubility thermodynamic, µM": 3
  },
  {
    "ENTRY_SMILES": "C[C@@H]1Cn2ncc(C3CCN(S(C)(=O)=O)CC3)c2CN1c1ccnc2[nH]ccc12",
    "solubility thermodynamic, µM": 965
  }
]

---

Test: Inhibition of CHK1 in HeLa S3 cells assessed as inhibition of phosphorylation at ser345 by AlphaScreen SureFire CHK1 (p-Ser345) assay
Each entry below lists one item and its recorded IC50 value.

[
  {
    "ENTRY_SMILES": "C[C@@H]1Cn2ncc(-c3ccc(S(=O)(=O)N(C)C)cc3)c2CN1c1ccnc2[nH]ccc12",
    "IC50 [µM]": 0.123
  },
  {
    "ENTRY_SMILES": "CN(C)S(=O)(=O)c1ccc(-c2cnc3ccc(-c4ccnc5[nH]ccc45)nn23)cc1",
    "IC50 [µM]": 0.044
  }
]

---

Biological target: Serine/threonine-protein kinase mTOR (Homo sapiens, UniProt P42345)
Assay: Inhibition of mTOR (unknown origin) by alphascreen SureFire p70 S6K (p-Thr389) assay

[
  {
    "ENTRY_SMILES": "C[C@@H]1Cn2ncc(-c3ccc(S(C)(=O)=O)cc3)c2CN1c1ccnc2[nH]ccc12",
    "IC50 [nM]": 1100
  }
]

---

Assay: Oral bioavailability in rat at 2.5 mg/kg
Format: ADME, organism-based
Conditions: in vivo
ASSAY_ENDPOINT: bioavailability

[
  {
    "ENTRY_SMILES": "C[C@@H]1Cn2ncc(C3CCN(S(C)(=O)=O)CC3)c2CN1c1cc(Cl)nc2[nH]ccc12",
    "RESULT": "64%"
  }
]

---

For Serine/threonine-protein kinase ATR (Homo sapiens, UniProt Q13535), measured IC50 is reported for the entries below.
ASSAY_ENDPOINT: IC50 (nM)

[
  {
    "ENTRY_SMILES": "C[C@@H]1Cn2ncc(C3CCN(S(C)(=O)=O)CC3)c2CN1c1ccnc2[nH]ncc12",
    "READOUT_NUMBER": 29
  },
  {
    "ENTRY_SMILES": "C[C@@H]1Cn2ncc(-c3ccc(S(C)(=O)=O)cc3)c2CN1c1ccnc2[nH]ccc12",
    "READOUT_NUMBER": 0.3
  },
  {
    "ENTRY_SMILES": "COc1ccc(-c2ccc3ncc(-c4ccc(C(N)=O)cc4)n3n2)cc1OC",
    "READOUT_NUMBER": 26
  },
  {
    "ENTRY_SMILES": "C[C@@H]1Cn2ncc(C3CCN(S(C)(=O)=O)CC3)c2C(=O)N1c1ccnc2[nH]ccc12",
    "READOUT_NUMBER": 64
  }
]

---

Target: Phosphatidylinositol 4,5-bisphosphate 3-kinase catalytic subunit alpha isoform (Homo sapiens)
Sequence (P42336 whole entry, canonical isoform): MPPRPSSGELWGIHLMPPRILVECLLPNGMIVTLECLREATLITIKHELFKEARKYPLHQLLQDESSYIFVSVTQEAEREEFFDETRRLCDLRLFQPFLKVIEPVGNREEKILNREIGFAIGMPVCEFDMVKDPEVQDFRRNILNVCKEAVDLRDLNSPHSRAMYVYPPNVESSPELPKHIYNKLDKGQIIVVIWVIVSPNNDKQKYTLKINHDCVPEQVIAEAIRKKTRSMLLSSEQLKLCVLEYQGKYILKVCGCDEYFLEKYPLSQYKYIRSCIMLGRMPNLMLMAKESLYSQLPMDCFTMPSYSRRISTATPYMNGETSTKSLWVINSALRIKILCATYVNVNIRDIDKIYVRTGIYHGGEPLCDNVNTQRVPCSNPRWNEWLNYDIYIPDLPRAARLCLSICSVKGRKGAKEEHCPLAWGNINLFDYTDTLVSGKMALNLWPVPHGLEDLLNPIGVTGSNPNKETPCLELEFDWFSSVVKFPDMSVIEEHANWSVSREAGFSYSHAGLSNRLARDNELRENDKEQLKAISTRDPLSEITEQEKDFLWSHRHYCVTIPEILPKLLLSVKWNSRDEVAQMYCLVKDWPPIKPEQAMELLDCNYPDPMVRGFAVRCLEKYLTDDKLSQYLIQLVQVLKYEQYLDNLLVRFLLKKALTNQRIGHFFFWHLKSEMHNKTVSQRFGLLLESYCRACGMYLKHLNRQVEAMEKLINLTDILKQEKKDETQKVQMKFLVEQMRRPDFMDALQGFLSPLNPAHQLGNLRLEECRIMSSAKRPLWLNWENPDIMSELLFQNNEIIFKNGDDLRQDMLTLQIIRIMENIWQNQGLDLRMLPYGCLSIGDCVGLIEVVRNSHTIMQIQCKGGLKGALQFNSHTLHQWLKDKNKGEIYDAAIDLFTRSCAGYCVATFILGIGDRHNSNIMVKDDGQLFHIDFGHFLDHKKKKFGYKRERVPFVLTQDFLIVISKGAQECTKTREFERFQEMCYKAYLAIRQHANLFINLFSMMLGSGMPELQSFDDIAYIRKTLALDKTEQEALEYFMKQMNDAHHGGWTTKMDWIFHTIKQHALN
Assay: Inhibition of PI3Kalpha (unknown origin)
pIC50: −log10 of the molar value.
Each entry below lists one item and its recorded pIC50 value.

[
  {
    "ENTRY_SMILES": "CN(C)S(=O)(=O)c1ccc(-c2cnc3ccc(-c4ccnc5[nH]ccc45)nn23)cc1",
    "COMPARISON_OPERATOR": "=",
    "pIC50": 7.40
  },
  {
    "ENTRY_SMILES": "COc1ccc(-c2ccc3ncc(-c4ccc(C(N)=O)cc4)n3n2)cc1OC",
    "COMPARISON_OPERATOR": "=",
    "pIC50": 8.05
  },
  {
    "ENTRY_SMILES": "CN(C)S(=O)(=O)c1ccc(-c2cnn3c2CN(c2ccnc4[nH]ccc24)CC3)cc1",
    "COMPARISON_OPERATOR": "=",
    "pIC50": 5.96
  },
  {
    "ENTRY_SMILES": "C[C@@H]1Cn2ncc(-c3ccc(S(=O)(=O)N(C)C)cc3)c2CN1c1ccnc2[nH]ccc12",
    "COMPARISON_OPERATOR": "<",
    "pIC50": 5.00
  }
]

---

Assay: Apparent permeability across apical to basolateral side in human Caco2 cells at pH 7.4
Conditions: Caco-2, pH 7.4
ASSAY_ENDPOINT: Papp A→B (×10⁻⁶ cm/s)

[
  {
    "ENTRY_SMILES": "C[C@@H]1Cn2ncc(C3CCN(S(C)(=O)=O)CC3)c2CN1c1ccnc2[nH]ccc12",
    "MEASUREMENT_UNITS": "×10⁻⁶ cm/s",
    "READOUT_NUMBER": 10
  },
  {
    "ENTRY_SMILES": "C[C@@H]1Cn2ncc(C3CCN(S(C)(=O)=O)CC3)c2CN1c1cc(Cl)nc2[nH]ccc12",
    "MEASUREMENT_UNITS": "×10⁻⁶ cm/s",
    "READOUT_NUMBER": 18
  }
]

---

For DNA-dependent protein kinase catalytic subunit (Homo sapiens, UniProt P78527), measured IC50 is reported for the entries below.

[
  {
    "ENTRY_SMILES": "C[C@@H]1Cn2ncc(-c3ccc(S(C)(=O)=O)cc3)c2CN1c1ccnc2[nH]ccc12",
    "IC50 (µM)": 0.14
  },
  {
    "ENTRY_SMILES": "C[C@@H]1Cn2ncc(C3CCN(S(C)(=O)=O)CC3)c2CN1c1ccnc2[nH]ccc12",
    "IC50 (µM)": 6.5
  },
  {
    "ENTRY_SMILES": "C[C@@H]1Cn2ncc(C3CCN(S(C)(=O)=O)CC3)c2CN1c1cc(Cl)nc2[nH]ccc12",
    "IC50 (µM)": 1.6
  }
]
